Field: growth inhibition. Provide a value for each of the molecules that follow.
# TEST: NCI Yeast Anticancer Drug Screen. Data for the sgs1 mgt1 strain (AID 161);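 also: 0% = growth of cultures given vehicle only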
# CONDITIONS: S. cerevisiae sgs1 mgt1 strain, at 50.0 µM, stronger effect = higher value
# Procedure: Growth inhibition of yeast strains with defined genetic alterations is measured as a screen for potential anti-cancer activity. Selected strains with alterations in DNA damage repair or cell cycle control were exposed to compounds and growth inhibition was measured relative to vehicle treated controls. The strain used in this assay is sgs1 mgt1
About 79,000 compounds went through this panel and 15% of them were active in at least one assay; those are over-represented in the sample as a whole. Calls of active or inactive are those of the source. Rule as the data show it: active = growth inhibition above about 70%; inactive = the rest.

Using the record for CC(=O)Nc1ccc(S(=O)(=O)CCS(=O)(=O)c2ccc(NC(C)=O)cc2)cc1 , report its growth inhibition.
-16.1% (inactive)

Using the record for CC(=O)NC1(C)CC[C@H]2CC1C(C)=NC2(C)C (stereo not given in full) , report its growth inhibition.
-6.9% (inactive)

Using the record for C=CCCCCCCCCCCCC , report its growth inhibition.
-20.8% (inactive)

Using the record for CCCCOC(=O)NC(=O)c1cn(CCCOC(=O)CCCCCCCCC(=O)OCCCn2cc(C(=O)NC(=O)OCCCC)c(=O)n(C)c2=O)c(=O)n(C)c1=O , report its growth inhibition.
-10.7% (inactive)

Using the record for Cc1nc(C(N)=S)sc1C(=O)CC(=O)C(=O)Nc1ccc(Br)cc1 , report its growth inhibition.
-24.4% (inactive)

Using the record for COC(=O)C1=NOC(COc2ccc([N+](=O)[O-])cc2)C1 (stereo not given) , report its growth inhibition.
20.4% (inactive)

Using the record for Cc1nc(C)c(N2CCN(CN)CC2)c(=O)[nH]1 , report its growth inhibition.
-48% (inactive)

Using the record for COC(=O)CCNCCSC(=O)c1ccccc1 , report its growth inhibition.
-6% (inactive)

I have 2 molecules here; please give me growth inhibition for each one.
1. CC1(O)CC2(O)C=CC3=C(C(=O)c4cccc(O)c4C3=O)C2(O)C(=O)C1O (stereo not given)
2. C/C=C(\C)C(=O)OC1CC(OC(=O)/C(C)=C/C)C2(C)C3C(=O)C=C(C)C2C3C1(C)C (stereo not given)

1: 30.4% (inactive); 2: 34.6% (inactive)

* * *

Field: growth inhibition. Provide a value for each of the molecules that follow.
# TEST: NCI Yeast Anticancer Drug Screen. Data for the bub3 strain (AID 167)
# CONDITIONS: S. cerevisiae bub3 mutant strain, at 50.0 µM, stronger effect = higher value
The panel holds about 79,000 compounds, 15% with a hit somewhere; the sample as a whole holds those more often.
One number for each entry, in %.

These recorded examples may help you get a feel for the data.
Using the record for O=C(c1ccccc1)c1cc[n+]([O-])cc1 , report its growth inhibition.
-8.7

Using the record for Cc1cc(C)c(Cc2c(C)cc(C)cc2C)c(C)c1 , report its growth inhibition.
23.9

Using the record for Clc1ccc(C2NC(c3ccccc3)c3c(ccc4ccccc34)O2)cc1Cl (stereo unspecified) , report its growth inhibition.
90.5

Using the record for Cc1ccc(N=Cc2ccc(C(N)=S)cc2)cc1 , report its growth inhibition.
18.8

Using the record for CCN(Cc1ccc(CN(CC)C(=O)c2c(-c3ccccc3)noc2C)cc1)C(=O)c1c(-c2ccccc2)noc1C , report its growth inhibition.
0.2

Using the record for CCCCc1ccc(Nc2nc(OC)c3ncn(C4CC(O)C(CO)O4)c3n2)cc1 (stereo unspecified) , report its growth inhibition.
69.5

I have 2 molecules here; please give me growth inhibition for each one.
1. O=C(CC1=NC2NN(c3ccccc3)C(=O)C2=C1CC(=O)c1ccc(F)cc1)c1ccc(F)cc1 (stereo unspecified)
2. Cn1c(-c2ccc(-c3cc(-c4cccs4)c(-c4cccs4)n3C)cc2)cc(-c2cccs2)c1-c1cccs1

1. 5.65
2. 1.55

I have 2 molecules here; please give me growth inhibition for each one.
1. COC1OC(OC)c2cc([N+](=O)[O-])ccc21 (stereo unspecified)
2. CCOC(O)C(F)(F)F (stereo unspecified)

-11.1
0.45

Using the record for NC(=O)c1ccc(I)cc1 , report its growth inhibition.
-37

* * *

# TEST: NCI Yeast Anticancer Drug Screen. Data for the bub3 strain (AID 167)
# CONDITIONS: S. cerevisiae bub3 mutant strain, at 50.0 µM, stronger effect = higher value
The panel holds about 79,000 compounds, 15% with a hit somewhere; the sample as a whole holds those more often.
PROPERTY: growth inhibition (%)
Numbers only, in %.

Using the record for CC(C)(N)CNCCO , report its growth inhibition.
-1.7

I have 5 molecules here; please give me growth inhibition for each one.
1. COC(=O)c1ccc2c(c1)nnn2C(C)=O
2. O=C1c2c(O)cccc2C(C(=O)CCCC(=O)C2c3cccc(O)c3C(=O)c3c(O)cccc32)c2cccc(O)c21
3. O.[Cl][Co]([Cl])[Cl].c1c[nH]cn1.c1c[nH]cn1
4. c1ccc(C(NC2=NCCO2)C2CC2)cc1 (stereo not given)
5. O=C1CN(c2ccc(Cl)cc2)C(=O)CN1/N=C/c1ccc(O)c(O)c1

1.7
-15.8
8.4
-9.55
-7.65

* * *

# TEST: NCI Yeast Anticancer Drug Screen. Data for the sgs1 mgt1 strain (AID 161);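 also: 0% = growth of cultures given vehicle only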
# CONDITIONS: S. cerevisiae sgs1 mgt1 strain, at 50.0 µM, stronger effect = higher value
About 79,000 compounds went through this panel and 15% of them were active in at least one assay; those are over-represented in the sample as a whole.
PROPERTY: growth inhibition (%)
Answers are plain numbers, in %.

These recorded examples may help you get a feel for the data.
Using the record for CC1(C=O)CCCC2(C)[C@@H]1CCC13CC(CC[C@H]12)C(C(=O)O)C3 (stereo partly drawn) , report its growth inhibition.
22.6

Using the record for COC(=O)/C=C(/C(=O)OC)c1c(C)c(C)c2c(C)cc(C)cc(C)c1-2 , report its growth inhibition.
3.8

Using the record for COc1ccc(-c2cc(=O)c3cccnc3[nH]2)cc1 , report its growth inhibition.
32.4

Using the record for O=C(CC[N+](=O)[O-])OCC1OC(OC(=O)CC[N+](=O)[O-])C(O)C(O)C1O (stereo not drawn) , report its growth inhibition.
28.4

Using the record for COc1c(NC(=O)Nc2ccc(F)c([N+](=O)[O-])c2)cccc1[N+](=O)[O-] , report its growth inhibition.
10

Using the record for CCN(CC)CCCNc1cc(OC)c(Cl)c2cccnc12 , report its growth inhibition.
38

Using the record for CCc1nc2c(c(=O)n(C)c(=O)n2C)n1C , report its growth inhibition.
-8.45

Using the record for O=[N+]([O-])c1ccccc1C1SCc2nc3ccccc3n21 (stereo not drawn) , report its growth inhibition.
31.8

I have 5 molecules here; please give me growth inhibition for each one.
1. [O-]C(=N/C(=N/[n+]1ccccc1)c1ccccc1)c1ccccc1
2. Oc1c(O)c(Cc2ccccc2)c(Cc2ccccc2)c(Cc2ccccc2)c1Cc1ccccc1
3. CN1CCCC2C3=CC=C4CC(O)CCC4(C)C3CCC21C (stereo not drawn)
4. FS(F)(F)(F)(F)c1cccc(NC(=S)SCc2ccc(Cl)cc2)c1
5. Cc1c2c(cc3c1[nH]c1ccccc13)C(c1ccc(F)cc1)=NCC2

1. 4.2
2. 23.3
3. 34.9
4. 39.8
5. 1.85

I have 4 molecules here; please give me growth inhibition for each one.
1. COC(=O)c1ccc(O)c(CN(C)C)c1
2. NC(=O)c1cc[cH-]c1.[Fe+2].c1cc[cH-]c1
3. Cc1cc(=O)oc2c(CNC(Cc3ccccc3)C(=O)O)c(O)ccc12 (stereo not drawn)
4. N#C/C(=C\c1ccccn1)c1ccc(Cl)cc1

1. 6.6
2. -4.75
3. -24.3
4. 11.5

I have 4 molecules here; please give me growth inhibition for each one.
1. ON=C1c2cc(Cl)ccc2-c2ccc(Cl)cc21
2. CC(=O)NC(=O)C(C(C)=O)c1ccccc1 (stereo not drawn)
3. Cc1cccc(NC(=O)Oc2ccc(Cl)cc2C(=O)c2ccccc2)c1
4. Cc1nnc(-n2nc(-c3ccc(Cl)cc3)cc2N)[nH]c1=O

[18.1, -7.35, 35.4, 22.4]

I have 2 molecules here; please give me growth inhibition for each one.
1. [Cl][Pd][Cl].[NH-]CC1(C[NH-])CCCCC1
2. CCOC(=O)COc1cc2c(cc1C(C)c1ccc(OCc3ccccc3)c(OC)c1)OCO2 (stereo not drawn)

3.75
-9.7

* * *

# TEST: NCI Yeast Anticancer Drug Screen. Data for the mlh1 rad18 strain (AID 175)
# CONDITIONS: S. cerevisiae mlh1 rad18 strain growth inhibition; at 50.0 µM
About 79,000 compounds went through this panel and 15% of them were active in at least one assay; those are over-represented in the sample as a whole. The source made the active and inactive calls. No stated cut-off is given here; in the data, active means growth inhibition above about 70%; inactive means the rest.
Write down one outcome, taken from active, inactive

So what was the verdict on CCC1C(=O)OCc2c1cc1n(c2=O)CCC12OCCO2 (stereo not given) in this test?
inactive

New cases:
So what was the verdict on O=C(O)CN=CC(O)C(O)C(O)C(O)CO (stereo not given) in this test?
inactive

So what was the verdict on NC(CCCCCCCCCCP(=O)(O)O)C(=O)O (stereo not given) in this test?
inactive

So what was the verdict on CC(C)(C)CC(C)(C)c1ccc(OCCOc2ccc(C(=O)Nc3ccc([N+](=O)[O-])cc3)cc2)cc1 in this test?
inactive
